Molecular target: G-protein coupled receptor 35 (Homo sapiens)
Sequence (Q9HC97 whole entry): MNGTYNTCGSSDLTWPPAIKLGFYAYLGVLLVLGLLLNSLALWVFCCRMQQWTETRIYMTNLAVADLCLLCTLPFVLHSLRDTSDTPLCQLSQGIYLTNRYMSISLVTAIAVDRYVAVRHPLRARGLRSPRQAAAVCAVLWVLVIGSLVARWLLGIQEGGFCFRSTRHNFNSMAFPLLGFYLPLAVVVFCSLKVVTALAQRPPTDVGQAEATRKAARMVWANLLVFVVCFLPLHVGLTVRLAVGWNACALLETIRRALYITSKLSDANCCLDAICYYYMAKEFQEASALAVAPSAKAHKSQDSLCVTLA
Assay: Agonist activity at GPR35 in human HT-29 cells assessed as desensitization of 1 uM zaprinast-induced DMR after 1 hr by dynamic mass redistribution assay
pIC50: −log10 of the molar value.
I would appreciate it if you labelled entries yes when pIC50 is 6 or higher, otherwise no.

1) O=C(O)c1cc2sccc2s1; no
2) CCCCCCCCCCCc1c(C(=O)O)sc2c(Br)csc12; yes
3) Cc1csc2c1sc1cc(C(=O)O)sc12; no
4) CC1=C(C#N)C(=C(C#N)C#N)OC12c1ccccc1-c1ccccc12; no
5) CCCCCCCCCCCCCc1c(C(=O)O)sc2c(Br)csc12; no

Continue with the next molecule.
I'd appreciate it if you could say whether "CCCCCCCCCCCCCCCc1c(C(=O)O)sc2c(Br)csc12" has pIC50 at least equal to 6. no
